# IC50 against RORc (Homo sapiens), merged from multiple literature sources
Simple rule here: IC50 less than 0.01 µM is Satisfied, otherwise Not satisfied.

MOLECULE | GROUP_LABEL
Cc1cc(C(=O)NC(C)c2cc(F)c(CN3[C@@H](C)CC[C@H](c4ccccc4)S3(=O)=O)cc2F)on1 (stereo in doubt) | Satisfied
CC(C)CN([C@H](C)c1ccc(-c2ccc(NS(C)(=O)=O)cc2)cc1)S(=O)(=O)Cc1ccccc1 | Not satisfied
CC(C)CN(c1ccc(F)cc1)S(=O)(=O)c1ccc(C(=O)NC2CCN(S(C)(=O)=O)CC2)cc1 | Not satisfied
CC(C)CN(Cc1ccc(-c2ccnc(N)c2)s1)S(=O)(=O)Cc1ccccc1 | Not satisfied
CC[C@@](C)(O)c1coc(-c2cncc([C@@]34CC[C@@H](c5cc(-c6c(F)cccc6F)nnc53)C4(C)C)n2)n1 | Not satisfied
C[C@H]1CC[C@H](c2ccccc2)S(=O)(=O)N1Cc1ccc(C2(C#N)CCOCC2)cc1 | Not satisfied

###

pIC50: −log10 of the molar value.
# pIC50 against RORc (Homo sapiens), merged from multiple literature sources
MEASURED_PROPERTY: pIC50

COMPOUND | ENDPOINT_RESULT
CC1(C)[C@H]2CC[C@]1(c1cc(-c3cnc(CO)o3)ccn1)c1nnc(-c3c(F)cccc3F)cc12 | 8.03
C[C@H]1CC[C@H](c2ccccc2)S(=O)(=O)N1Cc1cc(F)c(C2(C(N)=O)CCOCC2)cc1F | 7.42
Cc1ocnc1[C@@]12CC[C@@H](c3cc(-c4c(F)cccc4F)nnc31)C2(C)C | 7.17
CC1(C)[C@H]2CC[C@]1(c1cc(C#N)nc(C#N)c1)c1nnc(-c3c(F)cccc3F)cc12 | 6.94
CC(C)(O)CNC(=O)N1CCC[C@H]([C@@]23CC[C@@H](c4cc(-c5c(F)cccc5F)nnc42)C3(C)C)C1 | 8.10
C[C@H]1CC[C@H](c2ccccc2)S(=O)(=O)N1Cc1cc(F)c(C2(C(=O)N[C@H]3C[C@@H](O)C3)CCOCC2)cc1F | 7.49
CC1(C)[C@H]2CC[C@]1(c1cncc(-c3nnn[nH]3)n1)c1nnc(-c3c(F)cccc3F)cc12 | 7.50

###

# log10 of IC50 against RORc (Homo sapiens), merged from multiple literature sources
MEASURED_PROPERTY: log10 of IC50 (log10 of the value in nM)

COMPOUND | TESTED_ON | ENDPOINT_RESULT
CC1(C)[C@H]2CC[C@]1(c1nnco1)c1nnc(-c3c(F)cccc3F)cc12 | RORc (Homo sapiens) | 2.28
CC1(C)[C@@H]2CC[C@@]1(c1nnc(CO)o1)c1nnc(-c3c(F)cccc3F)cc12 | RORc (Homo sapiens) | 2.29
CC1(C)[C@H]2CC[C@]1(c1cncc(-n3cncn3)n1)c1nnc(-c3c(F)cccc3F)cc12 | RORc (Homo sapiens) | 0.80
C[C@H]1CCC(c2ccccc2)S(=O)(=O)N1Cc1ccc(-c2ccc(C#N)nc2)cc1F (stereo partly drawn) | RORc (Homo sapiens) | 2.04
CCN(C[C@@]12CC[C@@H](c3cc(-c4c(F)cccc4F)nnc31)C2(C)C)S(C)(=O)=O | RORc (Homo sapiens) | 1.66
CC1(C)[C@H]2CC[C@]1(c1cccc3nccn13)c1nnc(-c3c(F)cccc3F)cc12 | RORc (Homo sapiens) | 1.96
CC1(C)[C@H]2CC[C@]1(c1ccnc(C3CCN(C(=O)CO)CC3)n1)c1nnc(-c3c(F)cccc3F)cc12 | RORc (Homo sapiens) | 1.09
C[C@@H](O)C(=O)Nc1ccc(-c2nccc([C@@]34CC[C@@H](c5cc(-c6c(F)cccc6F)nnc53)C4(C)C)n2)cn1 | RORc (Homo sapiens) | 1.02
CC1(C)[C@@H]2CC[C@@]1(C(=O)NCC1CC1)c1nnc(-c3c(F)cccc3F)cc12 | RORc (Homo sapiens) | 2.29
CC1(C)[C@H]2CC[C@]1(c1cncc(C(=O)NC[C@H](O)CO)n1)c1nnc(-c3c(F)cccc3F)cc12 | RORc (Homo sapiens) | 1.68
COC(=O)C1(c2ccc(CN3[C@@H](C)CC[C@H](c4ccccc4)S3(=O)=O)c(F)c2)CCOCC1 | RORc (Homo sapiens) | 2.28
COCCOC[C@]12CC[C@H](c3cc(-c4ccccc4F)nnc31)C2(C)C | RORc (Homo sapiens) | 2.90
C[C@H]1CC[C@H](c2ccccc2)S(=O)(=O)N1Cc1cc(F)c([C@@]23C[C@@H]2COC3=O)cc1F | RORc (Homo sapiens) | 1.60
CC1(C)[C@H]2CC[C@]1(c1cccc(C(=O)NC3COC3)n1)c1nnc(-c3c(F)cccc3F)cc12 | RORc (Homo sapiens) | 1.13
